B1: KCNG1 (parent)
chain: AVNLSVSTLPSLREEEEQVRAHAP

Variants of: B1
Test: protein stability index of a GFP-peptide fusion (GPS, HEK-293T) (PSI 1-6); higher = more stable;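 note: lentivirally expressed fusions sorted by FACS into six bins by GFP to DsRed ratio, PSI derived from sequencing read proportions per bin multiplied by bin number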
Conditions: c terminus: a fixed tail appended
Reported protein stability index values are given for each entry in this list.

SEQUENCE_CHANGE | protein stability index
S7T | 4.95
T8E | 4.95
L9T | 5.08
H22C | 4.92
H22Y | 4.87
S11E | 5.14
